Data credit: paper PMC7826789

Each entry below carries its recorded Percent Control.
- Tested on: ANKK1
- experimental-setup: Compound Concentration (nM):1000;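 further: KINOMEscan scanMAX binding as percent activity remaining versus control; lower means stronger binding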
Return type: number; implicit unit %.

>  <compound>
Nc1ncnc2occ(-c3ccc(NC(=O)Nc4cc(C(F)(F)F)ccc4F)cc3)c12 [GW770249X]

>  <unit-text>
%

>  <Percent Control>
32

$$$$

Input line: // returns reported Percent Control for input COc1cc(C)c(N(C)C(=O)CN(C)C)cc1Nc1nc(Nc2cccc(F)c2C(N)=O)c2cc[nH]c2n1
Output line: 94

Input line: // returns reported Percent Control for input Cl.O=C(Nc1ccc(Oc2ccc3[nH]c(NC(=O)c4ccccc4)nc3c2)cc1)Nc1cc(C(F)(F)F)ccc1F [GW709042A]
Output line: 95

Input line: // returns reported Percent Control for input O=C(Nc1n[nH]c2nc(-c3ccc(O)cc3)c(Br)cc12)C1CC1
Output line: 100

Input line: // returns reported Percent Control for input CCS(=O)(=O)c1ccc(OC)c(Nc2ncc(-c3cccc(OC)c3)o2)c1 [GW580509X]
Output line: 95

Input line: // returns reported Percent Control for input C[C@@H](Oc1cc(-n2cnc3ccc(OC4CCN(C)CC4)cc32)sc1C(N)=O)c1ccccc1Cl [GSK579289A]
Output line: 63

Input line: // returns reported Percent Control for input COc1cccc(-c2c[nH]c3c(N/N=C/c4ccncc4)ncnc23)c1 [GW814408X]
Output line: 100

Input line: // returns reported Percent Control for input NS(=O)(=O)c1ccc(Nc2ncc(-c3ccccc3)o2)cc1 [GW572399X]
Output line: 82

Input line: // returns reported Percent Control for input O=C1Nc2ccc(C(=O)c3ccco3)cc2C1=Cc1cc(Cl)c(O)c(Cl)c1 [GW406108X]
Output line: 9.2

Input line: // returns reported Percent Control for input Cl.O=C(Nc1ccc(Oc2ccc3[nH]c(NC(=O)c4ccco4)nc3c2)cc1)Nc1cc(C(F)(F)F)ccc1F [GW683134A]
Output line: 100

* * *

Each entry below carries its recorded Percent Control.
- Tested on: CDK11
- Construct: gene CDK19
- experimental-setup: Compound Concentration (nM):1000
Return type: number; implicit unit %.

Examples with answers:
>  <molecule>
COc1cc(N2CCN(C(C)C)CC2)ccc1Nc1nc(Nc2ccc(F)cc2C(=O)NC[C@@H](O)CO)c2cc[nH]c2n1 [GSK1392956A]

>  <attribute-measured>
Percent Control

>  <unit-text>
%

>  <assay-value>
91

$$$$
>  <molecule>
COc1cccc(-n2ncc3c(N/N=C/c4ccncc4)ncnc32)c1 [GW784752X]

>  <attribute-measured>
Percent Control

>  <unit-text>
%

>  <assay-value>
100

$$$$
>  <molecule>
CN(C)c1cc2c(Nc3ccc4c(cnn4Cc4ccccc4)c3)ncnc2cn1 [GW282974X]

>  <attribute-measured>
Percent Control

>  <unit-text>
%

>  <assay-value>
99

$$$$

Input line: // returns reported Percent Control for input CCS(=O)(=O)c1ccc(OC)c(Nc2ncc(-c3cccc(F)c3)o2)c1 [GW621970X]
Output line: 100

Input line: // returns reported Percent Control for input Cl.c1ccc(Cc2nc3ccc(Nc4ncnc5ccccc45)cc3[nH]2)cc1 [GR269666A]
Output line: 100

* * *

- Test system: NEK1
- experimental-setup: Compound Concentration (nM):1000
// returns n unless Percent Control is strictly below 90%, in which case y

Solved cases below.
>  <compound>
CC1=C(C(=O)Nc2ccc3[nH]ncc3c2)C(c2ccc(Cl)c(Cl)c2)CC(=O)N1 (stereo not drawn) [GSK299115A]

>  <label>
y

$$$$
>  <compound>
COc1cc(C)c(N(C)C(=O)CN(C)C)cc1Nc1nc(Nc2cccc(F)c2C(N)=O)c2cc[nH]c2n1

>  <label>
n

$$$$
>  <compound>
CCS(=O)(=O)c1ccc(OC)c(Nc2ncc(-c3cccc(F)c3)o2)c1 [GW621970X]

>  <label>
y

$$$$

Input line: Hello, is Percent Control of the following compound strictly smaller than 90%? COc1ccccc1-c1cc(/C=C2\C(=O)Nc3ncc(Br)cc32)cc(Br)c1O [GW442130X]
Output line: n

Input line: Hello, is Percent Control of the following compound strictly smaller than 90%? CC1=C(C(=O)Nc2ccc3[nH]ncc3c2)C(c2ccc3ccccc3c2)CC(=O)N1 (stereo not drawn) [GSK270822A]
Output line: y

Input line: Hello, is Percent Control of the following compound strictly smaller than 90%? COc1ccc2c(-c3ccnc(Nc4cccc(OC(F)(F)F)c4)n3)cnn2n1 [GW810372X]
Output line: y

* * *

Each entry below carries its recorded Percent Control.
- Test system: PIM2
- experimental-setup: Compound Concentration (nM):1000
Return type: number; implicit unit %.

Input line: // returns reported Percent Control for input COc1cc2ncn(-c3cc(O[C@H](C)c4ccccc4Cl)c(C(N)=O)s3)c2cc1OC [GSK237701A]
Output line: 100

Input line: // returns reported Percent Control for input CCS(=O)(=O)c1ccc(OC)c(Nc2ncc(-c3cccc(OC)c3)o2)c1 [GW580509X]
Output line: 100

Input line: // returns reported Percent Control for input COc1cc(N2CCN(C(C)C)CC2)ccc1Nc1nc(Nc2ccc(F)cc2C(=O)NC[C@@H](O)CO)c2cc[nH]c2n1 [GSK1392956A]
Output line: 100

Input line: // returns reported Percent Control for input Cl.O=C(O[C@H]1CN[C@H](C#Cc2cc3ncnc(Nc4ccc5c(cnn5Cc5ccccc5)c4)c3s2)C1)N1CCOCC1 [GSK200398A]
Output line: 100

Input line: // returns reported Percent Control for input COc1ccc2c(-c3ccnc(Nc4cccc(OC(F)(F)F)c4)n3)cnn2n1 [GW810372X]
Output line: 100

Input line: // returns reported Percent Control for input CCS(=O)(=O)c1ccc(OC)c(Nc2ncc(-c3cccc(F)c3)o2)c1 [GW621970X]
Output line: 100

Input line: // returns reported Percent Control for input COc1cc(/C=N/Nc2ncnc3[nH]ncc23)ccc1O [GW578748X]
Output line: 100

Input line: // returns reported Percent Control for input COc1ccc2[nH]c3c4[nH]c5ccc(OC)cc5c4c4c(c3c2c1)C(=O)NC4=O [GW296115X]
Output line: 0.5

Input line: // returns reported Percent Control for input CC1=C(C(=O)Nc2ccc3[nH]ncc3c2)C(c2ccc3ccccc3c2)CC(=O)N1 (stereo not shown) [GSK270822A]
Output line: 100

Input line: // returns reported Percent Control for input NS(=O)(=O)c1ccc(Nc2ncc(-c3ccccc3)o2)cc1 [GW572399X]
Output line: 100

Input line: // returns reported Percent Control for input O=C1Nc2ccc(C(=O)c3ccco3)cc2C1=Cc1cc(Cl)c(O)c(Cl)c1 [GW406108X]
Output line: 61

Input line: // returns reported Percent Control for input NS(=O)(=O)c1ccc(N/N=C2\C(=O)Nc3ccc(Cl)cc32)cc1 [GW280670X]
Output line: 100

Input line: // returns reported Percent Control for input CCn1c(-c2nonc2N)nc2c(C#CC(C)(C)O)nc(OCCNC)cc21.Cl
Output line: 56

Input line: // returns reported Percent Control for input COc1ccccc1-c1cc(/C=C2\C(=O)Nc3ncc(Br)cc32)cc(Br)c1O [GW442130X]
Output line: 96

Input line: // returns reported Percent Control for input NS(=O)(=O)c1ccc(N/N=C2\C(=O)Nc3ccc(-c4cnco4)cc32)cc1
Output line: 96

Input line: // returns reported Percent Control for input CN(C)CCNC(=O)Nc1ccc(N(C)c2ccnc(Nc3ccc(CS(C)(=O)=O)cc3)n2)cc1.Cl [GW830900A]
Output line: 100

Input line: // returns reported Percent Control for input COc1cccc(-c2c[nH]c3c(N/N=C/c4ccncc4)ncnc23)c1 [GW814408X]
Output line: 100

Input line: // returns reported Percent Control for input C[C@@H](Oc1cc(-n2cnc3ccc(OC4CCN(C)CC4)cc32)sc1C(N)=O)c1ccccc1Cl [GSK579289A]
Output line: 100

Input line: // returns reported Percent Control for input CCc1ccc(Oc2nccc(-c3c(-c4ccc(F)cc4)ncn3C3CCNCC3)n2)cc1
Output line: 100

* * *

- Tested on: ULK3
- experimental-setup: Compound Concentration (nM):1000
Assign fulfilled whenever Percent Control does not fall below 90%; assign not fulfilled whenever it does.

Solved cases below.
>  <molecule>
NS(=O)(=O)c1ccc(N/N=C2\C(=O)Nc3ccc(-c4cnco4)cc32)cc1

>  <label>
not fulfilled

$$$$
>  <molecule>
COc1cccc(-c2c[nH]c3c(N/N=C/c4ccncc4)ncnc23)c1 [GW814408X]

>  <label>
not fulfilled

$$$$
>  <molecule>
CCS(=O)(=O)c1ccc(OC)c(Nc2ncc(-c3cccc(OC)c3)o2)c1 [GW580509X]

>  <label>
fulfilled

$$$$

Input line: Item COc1ccc(COc2ccc(Cc3cnc(N)nc3N)cc2OC)cc1 [GW632580X] with Percent Control of 90% or above?
Output line: fulfilled

Input line: Item CC(C)COC(=O)c1ccc2c(c1)/C(=C/Nc1ccc(S(N)(=O)=O)cc1)C(=O)N2 [GW416981X] with Percent Control of 90% or above?
Output line: not fulfilled

Input line: Item CC1=C(C(=O)Nc2ccc3[nH]ncc3c2)C(c2ccc(Cl)c(Cl)c2)CC(=O)N1 (stereo not shown) [GSK299115A] with Percent Control of 90% or above?
Output line: not fulfilled

Input line: Item NS(=O)(=O)c1ccc(N/N=C2\C(=O)Nc3ccc(Cl)cc32)cc1 [GW280670X] with Percent Control of 90% or above?
Output line: fulfilled
